Tested on: HCT116
measurement-parameters: 72 h; ICRF193 200 nM
Structures can show the parent of a compound that is named as a salt.
quantity-kind: IC50 cell viability

These solved cases illustrate the format of a correct answer.
1) CC1(C)O[C@@H]2[C@@H](CO[C@@]3(COS(N)(=O)=O)OC(C)(C)O[C@@H]23)O1 [Topiramate] :: > 45.8 µM
2) C=C1C[C@H]2[C@@H]3C=C(C)C4=CC(=O)CC[C@]4(C)[C@H]3CC[C@]2(C)[C@@]1(OC(C)=O)C(C)=O [Melengestrol acetate] :: 18.3 µM
3) CN(C)CCOC(=O)C(c1ccccc1)C1(O)CCCC1 (stereo not given) [Cyclopentolate hydrochloride] :: > 45.8 µM
4) CCC(NC(C)C)C(O)c1ccc(O)c2[nH]c(=O)ccc12 (stereo not given) :: > 45.8 µM
5) CC(Cc1ccc(O)cc1)NCC(O)c1cc(O)cc(O)c1 (stereo not given) [Fenoterol hydrobromide] :: > 45.8 µM

// query For the compound S=C(SSC(=S)N1CCCCC1)N1CCCCC1 [Dicyclopentamethylenethiuram disulfide] , report IC50 cell viability.
// result > 45.8 µM

// query For the compound CC1=C(/C=C/C(C)=C/C=C/C(C)=C/CO)C(C)(C)CCC1 , report IC50 cell viability.
// result > 45.8 µM

// query For the compound CCSc1ccc2c(c1)N(CCCN1CCN(C)CC1)c1ccccc1S2 [Thiethylperazine dimalate] , report IC50 cell viability.
// result 20.6 µM

// query For the compound CCCCCCCC(=O)OCC(O)CO (stereo not given) [2,3-Dihydroxypropyl octanoate] , report IC50 cell viability.
// result > 45.8 µM

// query For the compound Nc1c(Br)cc(Br)cc1CN[C@H]1CC[C@H](O)CC1 [Ambroxol hydrochloride] , report IC50 cell viability.
// result > 45.8 µM

// query For the compound N[C@H](CCC(=O)O)C(=O)O , report IC50 cell viability.
// result > 45.8 µM

// query For the compound NCCCC[C@H](NC(=O)[C@@H]1CCCN1C(=O)[C@@H]1CSSC[C@H](N)C(=O)N[C@@H](Cc2ccc(O)cc2)C(=O)N[C@@H](Cc2ccccc2)C(=O)N[C@@H](CCC(N)=O)C(=O)N[C@@H](CC(N)=O)C(=O)N1)C(=O)NCC(N)=O , report IC50 cell viability.
// result 29.1 µM

// query For the compound CN(C(=O)CO)c1c(I)c(C(=O)NCC(O)CO)c(I)c(C(=O)NCC(O)CO)c1I (stereo not given) , report IC50 cell viability.
// result > 45.8 µM

// query For the compound C/C(=C(\CCOC(=O)c1ccccc1)SS/C(CCOC(=O)c1ccccc1)=C(/C)N(C=O)Cc1cnc(C)nc1N)N(C=O)Cc1cnc(C)nc1N , report IC50 cell viability.
// result > 45.8 µM

// query For the compound O=C(c1ccc(F)c(F)c1Nc1ccc(I)cc1F)N1CC(O)([C@@H]2CCCCN2)C1 , report IC50 cell viability.
// result 9.2 µM

###

Consider the following compounds and their measured efficacy readings.
System: HCT116
test-protocol: efficacy (maximum % inhibition of viability vs DMSO); higher = more cytotoxic
measurement-parameters: 72 h; ICRF193 200 nM
Structures can show the parent of a compound that is named as a salt.
Reply numerically in %, unit not repeated.

1) COc1ccc(C(Cl)=C(c2ccc(OC)cc2)c2ccc(OC)cc2)cc1 :: 45.8
2) CNCCC(Oc1ccc(C(F)(F)F)cc1)c1ccccc1 (racemic) [(+/-) -Fluoxetine] :: 102
3) COCCOC(=O)C1=C(C)NC(C)=C(C(=O)OC/C=C/c2ccccc2)C1c1cccc([N+](=O)[O-])c1 (configuration not stated) :: 103
4) CC/N=C(\NCC)NCCCC[C@H](NC(=O)[C@H](CC(C)C)NC(=O)[C@@H](CCCCN/C(=N/CC)NCC)NC(=O)[C@H](Cc1ccc(O)cc1)NC(=O)[C@H](CO)NC(=O)[C@@H](Cc1cccnc1)NC(=O)[C@@H](Cc1ccc(Cl)cc1)NC(=O)[C@@H](Cc1ccc2ccccc2c1)NC(C)=O)C(=O)N1CCC[C@H]1C(=O)N[C@H](C)C(N)=O :: 82.7
5) NC(=O)[C@@H]1CCCN1C(=O)[C@H](Cc1c[nH]cn1)NC(=O)[C@@H]1CCC(=O)N1 :: 64.8
6) CC[C@H](c1ccc(O)cc1)[C@@H](CC)c1ccc(O)cc1 :: 64.6

// query Please respond with reported efficacy (system HCT116) for N=c1ccn2c(n1)O[C@H]1[C@H](O)[C@@H](CO)O[C@H]12 [ANCITABINE HYDROCHLORIDE] .
// result 56.7

###

Test system: HCT116
measurement-parameters: 72 h; ICRF193 0 nM
Structures can show the parent of a compound that is named as a salt.
Consider the following compounds and their measured IC50 cell viability readings.

1. O=C(O)CCC(=O)O [Butanedioic acid] :: > 45.8 µM
2. O=C(NC(Cc1cc(=O)[nH]c2ccccc12)C(=O)O)c1ccc(Cl)cc1 (configuration not stated) [Rebamipide] :: > 45.8 µM
3. Nc1c(CC(=O)O)cccc1C(=O)c1ccc(Br)cc1 [Bromfenac sodium sesquihydrate] :: > 45.8 µM
4. Nc1ccccc1C(=O)OCC(O)CO (configuration not stated) [Glyceryl 1-(2-aminobenzoate)] :: > 45.8 µM
5. CCC1NC(=O)c2cc(S(N)(=O)=O)c(Cl)cc2N1 (configuration not stated) [Quinethazone] :: > 45.8 µM
6. CC(=O)Nc1ccccc1 [Acetanilide] :: > 45.8 µM
7. CC1=NN(c2ccccc2)C(=O)C1 [Edaravone] :: > 45.8 µM
8. O=C1CSC2(CCN(CCCN3c4ccccc4Sc4ccc(Cl)cc43)CC2)N1 [Spiclomazine hydrochloride] :: 20.6 µM

// query For the compound COC(=O)C1=C(C)NC(C)=C(C(=O)OCCN(C)Cc2ccccc2)C1c1cccc([N+](=O)[O-])c1 (configuration not stated) [Nicardipine] , report IC50 cell viability.
// result 23.1 µM

// query For the compound CCCCCCCCCCCCCCCC(=O)OC[C@@H](NC(=O)C(Cl)Cl)[C@H](O)c1ccc([N+](=O)[O-])cc1 [Chloramphenicol palmitate] , report IC50 cell viability.
// result > 45.8 µM

// query For the compound C[C@H](CSC(=O)c1ccccc1)C(=O)N1C[C@@H](Sc2ccccc2)C[C@H]1C(=O)O [Zofenopril] , report IC50 cell viability.
// result > 45.8 µM

// query For the compound CC1(C)OC[C@@H](COC(=O)CCc2ccc(OC[C@@H](O)CNCCNC(=O)N3CCOCC3)cc2)O1 [Landiolol hydrochloride] , report IC50 cell viability.
// result > 45.8 µM

// query For the compound O=C(O[C@H]1CN2CCC1CC2)N1CCc2ccccc2[C@@H]1c1ccccc1 [Solifenacin (hydrochloride)] , report IC50 cell viability.
// result > 45.8 µM

###

Tested on: HCT116
measurement-parameters: 72 h; ICRF193 0 nM
Counter-ions that a name gives are not always drawn.
Consider the following compounds and their measured IC50 cell viability readings.

These solved cases illustrate the format of a correct answer.
1) FC(F)OC(Cl)C(F)(F)F (stereo not given) :: > 45.8 µM
2) CNC(=O)c1ccccc1Sc1ccc2c(/C=C/c3ccccn3)n[nH]c2c1 :: 23.1 µM
3) CC(=O)Nc1c(I)c(C(=O)N[C@H]2C(O)O[C@H](CO)[C@@H](O)[C@@H]2O)c(I)c(N(C)C(C)=O)c1I (stereo not given in full) [Metrizamide] :: > 45.8 µM
4) O=[N+]([O-])c1nccn1COC(CO)C(O)CO (stereo not given) :: > 45.8 µM

Shift focus to the following entry.
// query For the compound O=C(OCCN1CCCCC1)C(O)(c1ccccc1)c1ccccc1 [Piperilate hydrochloride] , report IC50 cell viability.
// result > 45.8 µM

###

Consider the following compounds and their measured IC50 cell viability readings.
System: HCT116
measurement-parameters: 72 h; ICRF193 200 nM

// query For the compound Cc1c(-c2ccc(O)cc2)n(Cc2ccc(OCCN3CCCCCC3)cc2)c2ccc(O)cc12 , report IC50 cell viability.
// result 23.1 µM

###

Test system: HCT116
measurement-parameters: 72 h; ICRF193 200 nM
Counter-ions that a name gives are not always drawn.
Consider the following molecules and their measured IC50 cell viability readings.

These solved cases illustrate the format of a correct answer.
1) CC1(C)O[C@@H]2C[C@H]3[C@@H]4C[C@H](F)C5=CC(=O)C=C[C@]5(C)[C@H]4[C@@H](O)C[C@]3(C)[C@]2(C(=O)CO)O1 [Flunisolide] :: > 45.8 µM
2) C[C@@H]1C[C@H]2[C@@H]3CCC4=CC(=O)C=C[C@]4(C)[C@@]3(F)[C@@H](O)C[C@]2(C)[C@@]1(O)C(=O)COP(=O)(O)O [Dexamethasone 21-phosphate disodium salt] :: > 45.8 µM
3) CN(C)[C@@H](CCOc1cccc2ccccc12)c1ccccc1 :: 23.1 µM

// query For the molecule COc1ccc(-n2nc(C(N)=O)c3c2C(=O)N(c2ccc(N4CCCCC4=O)cc2)CC3)cc1 , report IC50 cell viability.
// result > 45.8 µM

// query For the molecule O=C(O)Cc1cccc2ccccc12 , report IC50 cell viability.
// result > 45.8 µM

// query For the molecule Cc1c(OCC(F)(F)F)ccnc1C[S@@+]([O-])c1nc2ccccc2[nH]1 [(R)-Lansoprazole] , report IC50 cell viability.
// result > 45.8 µM

// query For the molecule COC(=O)[C@H]1[C@H]2C[C@@H]3c4[nH]c5cc(OC)ccc5c4CCN3C[C@H]2C[C@@H](OC(=O)c2cc(OC)c(OC)c(OC)c2)[C@@H]1OC , report IC50 cell viability.
// result 16.4 µM
